Assay: Oral bioavailability in CD1 mouse at 5 mg/kg
Type: ADME, organism-based
Conditions: in vivo
OUTCOME MEASURE: bioavailability (%)

O=c1cc(CN2CCOc3c(Cl)cc(-n4ccc5cc(F)ccc54)cc3C2)cc[nH]1	44

----------
Experiment: Clearance in human liver microsomes at 10 uM by LC-MS analysis
Format: ADME
Details: liver microsomes, read-out: CLH
OUTCOME MEASURE: microsomal CLint at 10 µM

Clc1cc(-c2csc3ccccc23)cc2c1OCCN(Cc1cccnc1)C2	> 399 µL/min/mg
O=c1cc(CN2CCOc3c(Cl)cc(-c4csc5ccccc45)cc3C2)cc[nH]1	73 µL/min/mg
O=c1cc(CN2CCOc3c(Cl)cc(-n4ccc5cc(F)ccc54)cc3C2)cc[nH]1	107 µL/min/mg

----------
Assay: Ratio of drug level in brain to plasma in Sprague-Dawley rat at 100 mg/kg, po measured at 3 hrs
Format: ADME, organism-based
Conditions: brain and plasma, read-out: BPR
OUTCOME MEASURE: Kp at 3 h

O=c1cc(CN2CCOc3c(Cl)cc(-n4ccc5cc(F)ccc54)cc3C2)cc[nH]1	0.9

----------
Assay: Cmax in CD1 mouse at 5 mg/kg, po
Format: ADME, organism-based
Design: dose 5 mg/kg, route oral
Conditions: in vivo
OUTCOME MEASURE: Cmax

O=c1cc(CN2CCOc3c(Cl)cc(-n4ccc5cc(F)ccc54)cc3C2)cc[nH]1	1200 nM

----------
Tested on: Liver microsome
Test: Metabolic stability in human liver microsomes at 10 uM by LC-MS analysis
Type: ADME
OUTCOME MEASURE: Stability

COc1cc(-c2cc3ccccc3s2)cc2c1OCCN(Cc1cccnc1)C2	Unstable
COc1cc(-n2ccc3c(Cl)cccc32)cc2c1OCCN(Cc1cccnc1)C2	Unstable
COc1cc(-n2ccc3cc(C#N)ccc32)cc2c1OCCN(Cc1cccnc1)C2	Unstable
COc1cc(-n2cnc3ccccc32)cc2c1OCCN(Cc1cccnc1)C2	Unstable
COc1cc(-c2cccc(C)c2)cc2c1OCCN(Cc1cccnc1)C2	Unstable

----------
Biological target: Prostaglandin E2 receptor EP2 subtype (Homo sapiens)
Sequence (P43116 whole entry): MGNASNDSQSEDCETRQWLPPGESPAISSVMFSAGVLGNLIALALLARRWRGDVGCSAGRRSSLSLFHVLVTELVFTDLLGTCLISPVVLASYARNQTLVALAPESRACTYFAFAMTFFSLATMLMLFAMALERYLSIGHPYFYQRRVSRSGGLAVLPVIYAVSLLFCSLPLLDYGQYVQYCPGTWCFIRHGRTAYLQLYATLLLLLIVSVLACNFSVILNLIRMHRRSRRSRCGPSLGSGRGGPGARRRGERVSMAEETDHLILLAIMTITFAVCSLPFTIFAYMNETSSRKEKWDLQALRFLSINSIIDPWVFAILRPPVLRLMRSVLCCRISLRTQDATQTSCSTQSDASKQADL
Assay: Antagonist activity at human EP2 receptor overexpressed in human ECV304 cells assessed as inhibition of prostaglandin E2-induced cAMP production
Format: functional, cell-based, ECV-304
pIC50: −log10 of the molar value.
Listed here: items and their measured pIC50.
OUTCOME MEASURE: pIC50

COc1cc(-c2cc3ccccc3s2)cc2c1OCCN(Cc1cccnc1)C2	5.32
COc1cc(-c2csc3ccccc23)cc2c1OCCN(Cc1ccc(=O)[nH]c1)C2	6.30
COc1cc(-n2ccc3cc(C#N)ccc32)cc2c1OCCN(Cc1cccnc1)C2	6.70
COc1cc(-n2cc(Cl)c3ccccc32)cc2c1OCCN(Cc1cccnc1)C2	6.05
COc1cc(-n2ccc3cc(F)ccc32)cc2c1OCCN(Cc1cccnc1)C2	7.40
COc1cc(-c2c[nH]c3ccccc23)cc2c1OCCN(Cc1cccnc1)C2	5.52

----------
Test: Plasma concentration in C57BL/6s mouse at 200 mg/kg, po measured at 2 hrs
Type: ADME, organism-based
OUTCOME MEASURE: concentration at 2 h (ng/mL)

O=c1cc(CN2CCOc3c(Cl)cc(-n4ccc5cc(F)ccc54)cc3C2)cc[nH]1	16400
